# testTarget: CDK2/Cyclin E1 (Homo sapiens, UniProt P24941)
# testMethodNotes: CDK2/Cyclin E1 Biochemical Assay (TR-FRET), 0.060 mM ATP
# measurementParameters: 0.15 μM Rb (Ser780)-biotin substrate, pH7.0, 60 min preincubation, 120 min reaction, room temperature
# Procedure: CDK2/Cyclin E1 and CDK1/Cyclin B1 Biochemical Assays Compounds disclosed herein were tested for inhibition of CDK2/Cyclin E1 or CDK1/Cyclin B1 kinase in an assay based on the time-resolved fluorescence-resonance energy transfer (TR-FRET) methodology. […] Plates were incubated at room temperature for 60 minutes, and the TR-FRET signals (ex337 nm, em665 nm/620 nm) were recorded on a PHERAstar FSX plate reader (BMG Labtech). […]
propertyLabel: IC50 (nM)

>  <molecule>
[2H]C([2H])([2H])N1Cc2c(ccc(Nc3cc([C@@H]4CC[C@H](OC(=O)NC5(C)CC5)C4)[nH]n3)c2F)S1(=O)=O (single isomer, unassigned) [Example 132b]

>  <propertyLabel>
IC50

>  <recordedMeasurement>
1.9

$$$$
>  <molecule>
CN1c2ccc(Nc3cc([C@@H]4CC[C@H](OC(=O)NC5(C)CC5)C4)[nH]n3)cc2CS1(=O)=O (relative stereo)

>  <propertyLabel>
IC50

>  <recordedMeasurement>
5.5

$$$$
>  <molecule>
CCCNC(=O)O[C@H]1CC[C@@H](c2cc(Nc3ccc4c(c3F)C(C)NS4(=O)=O)n[nH]2)C1 (single isomer, unassigned) [Example 53a]

>  <propertyLabel>
IC50

>  <recordedMeasurement>
6.3

$$$$
>  <molecule>
O=C(NC1CCC12CC2)O[C@H]1CC[C@@H](c2cc(Nc3ccc4c(c3F)CNS4(=O)=O)n[nH]2)C1 (relative stereo)

>  <propertyLabel>
IC50

>  <recordedMeasurement>
3.6

$$$$
>  <molecule>
CC(C)NC(=O)O[C@H]1CC[C@@H](c2cc(Nc3ccc4c(c3F)CN(C3COC3)S4(=O)=O)n[nH]2)C1 (single isomer, unassigned) [Example 133a]

>  <propertyLabel>
IC50

>  <recordedMeasurement>
24

$$$$

###

# testTarget: CDK2/Cyclin E1 (Homo sapiens)
# testMethodNotes: CDK2/Cyclin E1 Biochemical Assay (TR-FRET), 0.060 mM ATP
# measurementParameters: 0.15 μM Rb (Ser780)-biotin substrate, pH7.0, 60 min preincubation, 120 min reaction, room temperature
log10 IC50 listing for selected molecules.
propertyLabel: log10 IC50 (log10 of the value in nM)

>  <molecule>
CCCNC(=O)O[C@H]1CC[C@@H](c2cc(Nc3ccc4c(c3F)CN(C3COC3)S4(=O)=O)n[nH]2)C1 (relative stereo)

>  <log10 IC50>
1.34

$$$$
>  <molecule>
CC(C)NC(=O)O[C@H]1CC[C@@H](c2cc(Nc3ccc4c(c3F)CN(C3CCNC(=O)C3)S4(=O)=O)n[nH]2)C1 (relative stereo)

>  <log10 IC50>
0.86

$$$$
>  <molecule>
CC(C)NC(=O)O[C@H]1CC[C@@H](c2cc(Nc3cc(F)c4c(c3)S(=O)(=O)NC4)n[nH]2)C1 (relative stereo)

>  <log10 IC50>
-0.52

$$$$
>  <molecule>
COCC(C)(C)NC(=O)O[C@H]1CC[C@@H](c2cc(Nc3ccc4c(c3F)CS(=O)(=O)N4CC(F)(F)F)n[nH]2)C1 (relative stereo)

>  <log10 IC50>
0.32

$$$$
>  <molecule>
CC(C)NC(=O)O[C@H]1CC[C@@H](c2cc(Nc3ccc4c(c3F)CN(CC3CC3)S4(=O)=O)n[nH]2)C1 (relative stereo)

>  <log10 IC50>
1.18

$$$$
>  <molecule>
CC(C)NC(=O)O[C@H]1CC[C@@H](c2cc(Nc3ccc4c(c3)C3(CCC3)S(=O)(=O)N4)n[nH]2)C1 (relative stereo)

>  <log10 IC50>
0.74

$$$$
>  <molecule>
CC(C)NC(=O)O[C@H]1CC[C@@H](c2cc(Nc3ccc4c(c3)CS(=O)(=O)N4CCO)n[nH]2)C1 (single isomer, unassigned) [Example 219b]

>  <log10 IC50>
0.56

$$$$
>  <molecule>
CN1c2ccc(Nc3cc([C@@H]4CC[C@H](OC(=O)NCC(C)(C)O)C4)[nH]n3)cc2CS1(=O)=O (relative stereo)

>  <log10 IC50>
1.20

$$$$
>  <molecule>
CC(C)NC(=O)O[C@H]1CC[C@@H](c2cc(Nc3cc4c(cc3C(F)(F)F)S(=O)(=O)NC4)n[nH]2)C1 (relative stereo)

>  <log10 IC50>
2.97

$$$$
>  <molecule>
CC(C)NC(=O)O[C@H]1CC[C@@H](c2cc(Nc3cc(F)c4c(c3)CS(=O)(=O)N4C)n[nH]2)C1 (relative stereo)

>  <log10 IC50>
1.00

$$$$
>  <molecule>
CC1(NC(=O)O[C@H]2CC[C@@H](c3cc(Nc4ccc5c(c4F)CN(CCO)S5(=O)=O)n[nH]3)C2)CC1 (single isomer, unassigned) [Example 128b]

>  <log10 IC50>
0.40

$$$$
>  <molecule>
CC(C)NC(=O)O[C@H]1CC[C@@H](c2cc(Nc3ccc4c(c3)C(C)NS4(=O)=O)n[nH]2)C1 (single isomer, unassigned) [Example 321b]

>  <log10 IC50>
-0.22

$$$$
>  <molecule>
CC(C)NC(=O)O[C@H]1CC[C@@H](c2cc(Nc3ccc4c(c3F)CN(C3CCCN(C)C3)S4(=O)=O)n[nH]2)C1 (relative stereo)

>  <log10 IC50>
1.00

$$$$

Provenance of the data: patent US20260297080A1
